Test: In vitro determination of human blood elimination half-life
Assay type: ADME
Settings: whole blood
measurement_name: half-life

Below are worked cases with known answers.
>  <molecule>
O=C(Cc1cccc(CN2CCCC2)c1)OCC1COc2ccccc2O1 (centres undefined)

>  <half-life>
< 1 min

$$$$
>  <molecule>
O=C(Cc1ccc(CN2CCCC2)cc1)OCC1COc2ccccc2O1 (centres undefined)

>  <half-life>
< 1 min

$$$$
>  <molecule>
O=C(Cc1ccc(O)c(CN2CCC(N3CCCCC3)CC2)c1)OCC1COc2ccccc2O1 (centres undefined)

>  <half-life>
< 1 min

$$$$

Please look at the following molecule next.
Looking up O=C(Cc1ccc(O)c(CN2CCN(CC(=O)N3CCCC3)CC2)c1)OCC1COc2ccccc2O1 (centres undefined) , I found its half-life recorded as < 1 min
